Target: BRD4 BD1 (Homo sapiens, UniProt O60885)
Assay: AlphaScreen binding assay, BRD4 Bromodomain 1
Quantity Kind: IC50

Take a look at these entries with their results.
- Compound: "CC(=O)N1c2ccc(-c3cnn([C@@H]4CCCS(=O)(=O)C4)c3)cc2N(C(=O)OCC2CC2)C[C@@H]1C"
  Quantity Kind: "IC50"
  Value: "0.1 to 1 µM"
- Compound: "CC(=O)N1c2ccc(-c3ccc(N4CCCC4=O)cc3)cc2N(C(=O)C2CCC2)C[C@@H]1C"
  Quantity Kind: "IC50"
  Value: "1 to 10 µM"
- Compound: "CC(=O)N1c2ccc(-c3ccc(Oc4ccccc4)cc3)cc2N(C(=O)c2ccco2)C[C@@H]1C"
  Quantity Kind: "IC50"
  Value: "1 to 10 µM"
- Compound: "CC(=O)N1c2ccc(-c3ccc(S(C)(=O)=O)cc3)cc2N(C(=O)c2cc3cc(OC(F)(F)F)ccc3[nH]2)CC1C (stereo not shown)"
  Quantity Kind: "IC50"
  Value: "> 10 µM"
- Compound: "COC(=O)N1c2ccc(-c3cnn(C4CC4)c3)cc2N(C(=O)Oc2cccnc2)C[C@@H]1C"
  Quantity Kind: "IC50"
  Value: "1 to 10 µM"
- Compound: "CC(=O)N1c2ccccc2N(C(=O)CCN(C)C)C[C@@H]1C"
  Quantity Kind: "IC50"
  Value: "> 10 µM"

The reported value for CC(=O)N1c2ccc(-c3ccc4nccn4n3)cc2N(C(=O)c2ccco2)C[C@@H]1C in terms of IC50 is 0.1 to 1 µM

###

Target: BRD4 BD1 (Homo sapiens)
Assay: AlphaScreen binding assay, BRD4 Bromodomain 1
# Lookup of reported IC50 keyed by entry

Worked cases, answers included:
- Molecule: "CC(=O)N1c2ccccc2N(C(=O)CSc2ccccc2)C[C@@H]1C"
  Quantity Kind: "IC50"
  Value: "> 10 µM"
- Molecule: "CC(=O)N1c2ccccc2N(Cc2cccc(C(F)(F)F)c2)C[C@@H]1C"
  Quantity Kind: "IC50"
  Value: "> 10 µM"
- Molecule: "CC(=O)N1c2ccc(-c3cccc(S(C)(=O)=O)c3)cc2N(C(=O)C2CCC2)C[C@@H]1C"
  Quantity Kind: "IC50"
  Value: "1 to 10 µM"
- Molecule: "CC(=O)N1c2ccc(-c3cnn(CCS(C)(=O)=O)c3)cc2N(C(=O)OC(C)C)C[C@@H]1C"
  Quantity Kind: "IC50"
  Value: "< 0.1 µM"
- Molecule: "COc1ccc(-c2ccc3c(c2)N(C(=O)C2CC2)C[C@H](C)N3C(C)=O)cc1N1CCCS1(=O)=O"
  Quantity Kind: "IC50"
  Value: "0.1 to 1 µM"
- Molecule: "CC(=O)N1c2ccc(-c3ccc(S(C)(=O)=O)cc3)cc2N(C(=O)c2ccc(OC(F)(F)F)cc2)C[C@@H]1C"
  Quantity Kind: "IC50"
  Value: "> 10 µM"
- Molecule: "COC(=O)Nc1cc2c(cc1-c1ccc(S(C)(=O)=O)cc1)N(C(=O)OC(C)C)C[C@H](C)N2C(C)=O"
  Quantity Kind: "IC50"
  Value: "1 to 10 µM"
- Molecule: "CC(=O)N1c2ccc(-c3cccc(NS(C)(=O)=O)c3)cc2N(C(=O)C2CCC2)C[C@@H]1C"
  Quantity Kind: "IC50"
  Value: "1 to 10 µM"

Lab note: CC(=O)N1c2ccc(-c3cnn(C4CN[C@H]4C)c3)cc2N(C(=O)OC2CC(F)(F)C2)C[C@@H]1C (mixture of isomers) gave IC50 of 0.1 to 1 µM

Reported IC50 for CC(=O)N1c2ccccc2N(C(=O)CC2CCCC2)C[C@@H]1C was > 10 µM

Memo: COc1ccc(F)cc1OC(=O)N1C[C@H](C)N(C(C)=O)c2ccc(-c3cnn(C4CC4)c3)cc21 , reported IC50: 0.1 to 1 µM

According to the records, this molecule C[C@H]1CN(C(=O)c2ccco2)c2cc(-c3ccc(S(C)(=O)=O)cc3)ccc2N1C=O displays IC50 of > 10 µM

Notebook: CC(=O)N1c2ccc(-c3cnn(CCn4ccnc4)c3)cc2N(C(=O)OC(C)C)C[C@@H]1C , IC50 read as 0.1 to 1 µM

For reference, reported IC50 for CC(C)OC(=O)N1C[C@H](C)N(C(=O)C2CC2)c2ccc(-c3cnn(C4CCOCC4)c3)cc21 stands at 0.1 to 1 µM

###

IC50 by entry:
Biological target: BRD4 BD1 (Homo sapiens, UniProt O60885)
Test: AlphaScreen binding assay, BRD4 Bromodomain 1

Consider the worked cases shown below.
- Smiles Notation: "CC(=O)N1c2ccc(-c3cnn(C)c3C)cc2N(C(=O)c2ccco2)C[C@@H]1C"
  System: "BRD4 BD1 (Homo sapiens, UniProt O60885)"
  IC50: "1000 to 10000 nM"
- Smiles Notation: "CC(=O)N1c2ccc(-c3cccc(NS(=O)(=O)N(C)C)c3)cc2N(C(=O)C2CC2)C[C@@H]1C"
  System: "BRD4 BD1 (Homo sapiens, UniProt O60885)"
  IC50: "1000 to 10000 nM"

IC50 reading for CC(=O)N1c2ccc(-c3ccc(S(N)(=O)=O)cc3)cc2N(C(=O)OC(C)C)C[C@@H]1C : 100 to 1000 nM

Per the records, this molecule ( COc1cc(C)ccc1OC(=O)N1C[C@H](C)N(C(C)=O)c2ccc(-c3cnn(C4CC4)c3)cc21 ) has IC50 equal to 100 to 1000 nM

Sample Cc1noc(C)c1Cn1cc(-c2ccc3c(c2)N(C(=O)OC(C)C)C[C@H](C)N3C(=O)C2CC2)cn1 ; IC50 observed: 100 to 1000 nM

Sample CC(=O)N1c2ccc(-c3ccc(S(N)(=O)=O)cc3)cc2N(C(=O)OC2CCCCC2)C[C@@H]1C ; IC50 observed: 100 to 1000 nM

# IC50 of CNS(=O)(=O)c1cccc(-c2ccc3c(c2)N(C(=O)OC2CCOCC2)C[C@H](C)N3C(C)=O)c1 = 100 to 1000 nM

Recorded IC50 (molecule CNS(=O)(=O)c1ccc(-c2ccc3c(c2)N(C(=O)OC2CCCCC2)C[C@H](C)N3C(C)=O)cc1 ): 100 to 1000 nM

Input CC(=O)N1c2ccc(-c3ccc(C(=O)NCC(N)=O)cc3)cc2N(C(=O)OC(C)C)C[C@@H]1C . Output IC50: 100 to 1000 nM

Note to self: IC50 recorded for CC(=O)N1c2ccc(-c3ccc(S(C)(=O)=O)cc3)cc2N(C(=O)CC2CCCC2)C[C@@H]1C was 1000 to 10000 nM

Sure, the documented IC50 for CC(=O)N1c2cnc(-c3ccc(S(C)(=O)=O)cc3)cc2N(C(=O)OC(C)C)C[C@@H]1C is 1000 to 10000 nM

For CC(=O)N1c2ccc(-c3cccc(N4CCCS4(=O)=O)c3)cc2N(C(=O)C2CCC2)C[C@@H]1C the molecule record lists IC50 as 1000 to 10000 nM

The reported value for CC(=O)N1c2ccc(-c3ccc(C(=O)Nc4ccccc4)cc3)cc2N(C(=O)OC(C)C)C[C@@H]1C in terms of IC50 is 1000 to 10000 nM

Entry CC(=O)N1c2cc(F)c(-c3ccc(S(C)(=O)=O)cc3)cc2N(C(=O)OC(C)C)C[C@@H]1C , IC50 reported as 1000 to 10000 nM

###

Documented IC50 across a set of compounds
Molecular target: BRD4 BD2 (Homo sapiens)
Experiment: AlphaScreen binding assay, BRD4 Bromodomain 2

Look over these answered cases.
- Smiles Notation: "CC(=O)N1c2ccccc2N(Cc2ccccc2OCCN(C)C)C[C@@H]1C"
  System: "BRD4 BD2 (Homo sapiens)"
  IC50: "0.05 to 0.5 µM"
- Smiles Notation: "CC(=O)N1c2ccc(-c3ccc(S(=O)(=O)NCCO)cc3)cc2N(C(=O)C2CC2)C[C@@H]1C"
  System: "BRD4 BD2 (Homo sapiens)"
  IC50: "0.05 to 0.5 µM"
- Smiles Notation: "CC(=O)N1c2ccccc2N(CC2CCN(C(C)C)CC2)C[C@@H]1C"
  System: "BRD4 BD2 (Homo sapiens)"
  IC50: "> 0.5 µM"
- Smiles Notation: "CC(=O)N1c2ccc(-c3ccc(OCCS(C)(=O)=O)cc3)cc2N(C(=O)OC(C)C)C[C@@H]1C"
  System: "BRD4 BD2 (Homo sapiens)"
  IC50: "0.05 to 0.5 µM"

Below: the item to evaluate.
Recorded IC50 for CC(=O)N1c2ccccc2N(S(=O)(=O)c2ccc(Cl)cc2)C[C@@H]1C on BRD4 BD2 (Homo sapiens) was > 0.5 µM

###

Biological target: BRD4 BD1 (Homo sapiens)
Test: AlphaScreen binding assay, BRD4 Bromodomain 1
Description: The binding of Example compounds to BRD4 Bromodomain 1 and BRD4 Bromodomain 2 was assessed using 384-well AlphaScreen assay technology. His-epitope tagged BRD4 BD144-168 and BRD4 BD2333-460 were cloned, expressed, and purified to homogeneity. BRD4 BD1 and BRD4 BD2 binding and inhibition was assessed by monitoring the engagement of biotinylated Histone H4 (1-21) K5/8/12/16 tetra-acetylated peptide with the targets using the AlphaScreen technology (PerkinElmer). […]
Each record here notes measured IC50.

- Smiles Notation: "CC(=O)N1c2ccc(-c3cccc(NS(=O)(=O)N(C)C)c3)cc2N(C(=O)OC2CCOCC2)C[C@@H]1C"
  IC50: "100 to 1000 nM"
- Smiles Notation: "CC(=O)N1c2ccc(-c3ccc(S(C)(=O)=O)cc3)cc2N(C)C[C@@H]1C"
  IC50: "> 10000 nM"
- Smiles Notation: "CC(=O)N1c2ccccc2N(C(=O)c2cc(C)n(C)n2)C[C@@H]1C"
  IC50: "> 10000 nM"
- Smiles Notation: "CC(=O)N1c2ccc(-c3cnn(C4CC4)c3)cc2N(C(=O)Oc2ccccc2)C[C@@H]1C"
  IC50: "100 to 1000 nM"

Alright, here's another compound for you.
Per the record, CC(=O)N1c2ccc(-c3ccc(C(=O)N4CCN(S(C)(=O)=O)CC4)cc3)cc2N(C(=O)OC(C)C)C[C@@H]1C has IC50 of 100 to 1000 nM

Every entry's value here was drawn from patent US10703764B2.
